Reported protein stability index by item:
B1: DLC1 (parent)
chain: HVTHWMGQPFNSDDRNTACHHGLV

# Variants of: B1
# Assay Remarks: protein stability index of a GFP-peptide fusion (GPS, HEK-293T) (PSI 1-6); higher = more stable;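 also: lentivirally expressed fusions sorted by FACS into six bins by GFP to DsRed ratio, PSI derived from sequencing read proportions per bin multiplied by bin number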
# Cond: c terminus: a fixed tail appended
In your answer, state the number alone without any accompanying words.

Below, 2 variants whose answers are already recorded.
[[record]]
mutation = "G7I"
observed_value = 2.03

[[record]]
mutation = "W5R"
observed_value = 3.56


In: Query (variant): `V2F` ; field requested: protein stability index
Out: 2.71

In: Query (variant): `H20G` ; field requested: protein stability index
Out: 2.16

In: Query (variant): `V2H` ; field requested: protein stability index
Out: 2.35

In: Query (variant): `D14E` ; field requested: protein stability index
Out: 1.7

In: Query (variant): `D13M` ; field requested: protein stability index
Out: 1.13

In: Query (variant): `H20D` ; field requested: protein stability index
Out: 2.36
